- assayed-target: BaF3_ASV (EGFR_A776inASV) (Homo sapiens, UniProt P00533, DUP767-769)
- Construct: expressed in transfected cells; host or cells: Ba/F3 (engineered)
- Sequence (P00533 with tags, fused parts or gaps DUP767-769): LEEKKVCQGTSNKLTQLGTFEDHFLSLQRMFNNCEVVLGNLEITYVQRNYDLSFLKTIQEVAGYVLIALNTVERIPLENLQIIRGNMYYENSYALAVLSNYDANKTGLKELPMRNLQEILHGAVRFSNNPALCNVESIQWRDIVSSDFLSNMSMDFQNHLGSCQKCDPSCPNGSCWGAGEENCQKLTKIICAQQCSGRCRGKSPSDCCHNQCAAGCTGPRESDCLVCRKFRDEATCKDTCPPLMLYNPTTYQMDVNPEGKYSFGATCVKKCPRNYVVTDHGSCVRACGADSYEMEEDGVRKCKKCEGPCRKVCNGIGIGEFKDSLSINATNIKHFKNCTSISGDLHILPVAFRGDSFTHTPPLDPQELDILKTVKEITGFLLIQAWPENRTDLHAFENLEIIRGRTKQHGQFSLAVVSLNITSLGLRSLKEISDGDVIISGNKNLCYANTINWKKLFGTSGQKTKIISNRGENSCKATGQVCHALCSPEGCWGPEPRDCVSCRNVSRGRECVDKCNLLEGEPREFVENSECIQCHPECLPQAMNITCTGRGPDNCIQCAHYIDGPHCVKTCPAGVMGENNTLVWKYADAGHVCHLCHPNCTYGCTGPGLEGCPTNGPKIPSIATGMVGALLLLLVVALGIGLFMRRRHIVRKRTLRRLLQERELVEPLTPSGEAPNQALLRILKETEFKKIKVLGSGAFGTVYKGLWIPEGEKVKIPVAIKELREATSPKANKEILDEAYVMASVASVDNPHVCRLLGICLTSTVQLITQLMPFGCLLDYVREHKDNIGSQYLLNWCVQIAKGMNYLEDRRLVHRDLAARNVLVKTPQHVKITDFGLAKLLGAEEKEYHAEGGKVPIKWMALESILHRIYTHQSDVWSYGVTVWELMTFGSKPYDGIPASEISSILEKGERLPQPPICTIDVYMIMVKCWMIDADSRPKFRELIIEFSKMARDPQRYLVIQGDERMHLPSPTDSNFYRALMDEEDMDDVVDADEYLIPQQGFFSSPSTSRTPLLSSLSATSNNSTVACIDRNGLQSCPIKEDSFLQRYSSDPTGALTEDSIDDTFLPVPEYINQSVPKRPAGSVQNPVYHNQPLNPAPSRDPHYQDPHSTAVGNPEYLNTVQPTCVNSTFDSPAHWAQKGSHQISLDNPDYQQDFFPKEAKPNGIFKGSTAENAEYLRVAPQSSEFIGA
- procedure-details: EGFR degradation assay (western blot), BaF3_ASV cells
- Type: cell-based
- test-conditions: BaF3_ASV cells, compounds 24 h, western blot; read-out: BaF3_ASV DC50
Field 'label' (enum: true (1) / false (0)). Set to true (1) when DC50 is strictly under 40 nM; else false (0).

>  <molecule>
CCc1cc(Nc2ncc(Br)c(Nc3ccc4nccnc4c3NS(C)(=O)=O)n2)c(OC)cc1N1CCC(N2CCN(CCc3cc(F)c(C4CCC(=O)NC4=O)c(F)c3)CC2)CC1 (centres unmarked)

>  <assayed-target>
BaF3_ASV (EGFR_A776inASV) (Homo sapiens, UniProt P00533, DUP767-769)

>  <class-label>
false (0)

$$$$
>  <molecule>
CCc1cc(Nc2ncc(Br)c(Nc3ccc4nccnc4c3NS(C)(=O)=O)n2)c(OC)cc1N1CCC(N2CC(N3CCN(c4ccc5c(c4)CN([C@H]4CCC(=O)NC4=O)C5=O)CC3)C2)CC1

>  <assayed-target>
BaF3_ASV (EGFR_A776inASV) (Homo sapiens, UniProt P00533, DUP767-769)

>  <class-label>
true (1)

$$$$
>  <molecule>
CCc1cc(Nc2ncc(Br)c(Nc3ccc4nccnc4c3NS(C)(=O)=O)n2)c(OC)cc1N1CCC(CN2CCC3(CC2)CCN(c2ccc4c(c2)CN(C2CCC(=O)NC2=O)C4=O)CC3)CC1 (centres unmarked)

>  <assayed-target>
BaF3_ASV (EGFR_A776inASV) (Homo sapiens, UniProt P00533, DUP767-769)

>  <class-label>
true (1)

$$$$
>  <molecule>
CCc1cc(Nc2ncc(Br)c(Nc3ccc4nccnc4c3NS(C)(=O)=O)n2)c(OC)cc1N1CCC(N2CCN(C3CCC4(CC3)CN(c3ccc5c(c3)CN(C3CCC(=O)NC3=O)C5=O)C4)CC2)CC1 (centres unmarked)

>  <assayed-target>
BaF3_ASV (EGFR_A776inASV) (Homo sapiens, UniProt P00533, DUP767-769)

>  <class-label>
false (0)

$$$$

Task: Please determine if CCc1cc(Nc2ncc(Br)c(Nc3ccc4nccnc4c3NS(C)(=O)=O)n2)c(OC)cc1N1CCC(N2CC3(CCN(c4ccc5c(c4)CN(C4CCC(=O)NC4=O)C5=O)CC3)C2)CC1 (centres unmarked) is below 40 nM in terms of DC50.
Result: false (0)
